Consider the following binders and their measured fold change of affinity readings.
- study_target: T1, Human CD3eg linker (human)
- T1 construct: Single chain: epsilon and gamma subunits of human CD3 joined by a 29-mer linker, Flag-tag at the C-terminus; also called recombinant human CD3
- T1 chain: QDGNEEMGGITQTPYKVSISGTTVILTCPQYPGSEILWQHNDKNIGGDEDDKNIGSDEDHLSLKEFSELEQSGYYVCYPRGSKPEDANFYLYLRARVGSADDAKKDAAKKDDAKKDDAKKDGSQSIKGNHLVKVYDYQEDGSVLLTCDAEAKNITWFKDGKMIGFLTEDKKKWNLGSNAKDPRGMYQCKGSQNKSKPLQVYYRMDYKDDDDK
- protocol_summary: Biacore SPR, vs template H183/L072
A number alone suffices; assume fold.

Recorded results for 2 binders are shown here.
H183/L072 VH G26L (antibody, name in Kabat numbering, V domains shown) VH: QVQLVESGGGLVQPGRSLRLSCAASLFTFSNAWMHWVRQAPGKGLEWVAQIKDKGNAYAAYYAPSVKGRFTISRDDSKNSIYLQMNSLKTEDTAVYYCHYVHYASASTVLPAFGVDAWGQGTTVTVSS VL: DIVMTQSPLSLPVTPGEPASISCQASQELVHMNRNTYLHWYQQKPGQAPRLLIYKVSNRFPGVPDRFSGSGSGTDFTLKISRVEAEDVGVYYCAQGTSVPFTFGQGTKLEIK    0.6
H183/L072 VH A57Y (antibody, name in Kabat numbering, V domains shown) VH: QVQLVESGGGLVQPGRSLRLSCAASGFTFSNAWMHWVRQAPGKGLEWVAQIKDKGNAYAYYYAPSVKGRFTISRDDSKNSIYLQMNSLKTEDTAVYYCHYVHYASASTVLPAFGVDAWGQGTTVTVSS VL: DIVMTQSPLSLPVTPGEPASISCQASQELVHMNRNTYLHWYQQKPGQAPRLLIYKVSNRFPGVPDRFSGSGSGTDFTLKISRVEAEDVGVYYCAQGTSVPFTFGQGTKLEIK    0.4

q: Query: fold change of affinity; subject: H183/L072 VH V95P (antibody, name in Kabat numbering, V domains shown) VH: QVQLVESGGGLVQPGRSLRLSCAASGFTFSNAWMHWVRQAPGKGLEWVAQIKDKGNAYAAYYAPSVKGRFTISRDDSKNSIYLQMNSLKTEDTAVYYCHYPHYASASTVLPAFGVDAWGQGTTVTVSS VL: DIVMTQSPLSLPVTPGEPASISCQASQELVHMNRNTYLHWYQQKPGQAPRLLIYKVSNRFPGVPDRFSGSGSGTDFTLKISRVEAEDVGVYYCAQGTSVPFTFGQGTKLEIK
a: 0

q: For H183/L072 VH P100eA (antibody, name in Kabat numbering, V domains shown) VH: QVQLVESGGGLVQPGRSLRLSCAASGFTFSNAWMHWVRQAPGKGLEWVAQIKDKGNAYAAYYAPSVKGRFTISRDDSKNSIYLQMNSLKTEDTAVYYCHYVHYASASTVLAAFGVDAWGQGTTVTVSS VL: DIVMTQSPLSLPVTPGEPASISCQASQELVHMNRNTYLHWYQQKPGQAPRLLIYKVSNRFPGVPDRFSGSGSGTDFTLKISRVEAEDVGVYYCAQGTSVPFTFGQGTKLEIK then?
a: 1.2

q: For H183/L072 VH A32T (antibody, name in Kabat numbering, V domains shown) VH: QVQLVESGGGLVQPGRSLRLSCAASGFTFSNTWMHWVRQAPGKGLEWVAQIKDKGNAYAAYYAPSVKGRFTISRDDSKNSIYLQMNSLKTEDTAVYYCHYVHYASASTVLPAFGVDAWGQGTTVTVSS VL: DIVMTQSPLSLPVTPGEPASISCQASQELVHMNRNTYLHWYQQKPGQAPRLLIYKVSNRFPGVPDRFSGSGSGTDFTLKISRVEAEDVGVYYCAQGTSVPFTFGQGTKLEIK then?
a: 0
